tested.target: human bradykinin 1 receptor (B1R) (Homo sapiens, UniProt P46663)
Construct: expressed in transfected cells; host or cells: CHO K1 cells
Sequence (P46663 1-353): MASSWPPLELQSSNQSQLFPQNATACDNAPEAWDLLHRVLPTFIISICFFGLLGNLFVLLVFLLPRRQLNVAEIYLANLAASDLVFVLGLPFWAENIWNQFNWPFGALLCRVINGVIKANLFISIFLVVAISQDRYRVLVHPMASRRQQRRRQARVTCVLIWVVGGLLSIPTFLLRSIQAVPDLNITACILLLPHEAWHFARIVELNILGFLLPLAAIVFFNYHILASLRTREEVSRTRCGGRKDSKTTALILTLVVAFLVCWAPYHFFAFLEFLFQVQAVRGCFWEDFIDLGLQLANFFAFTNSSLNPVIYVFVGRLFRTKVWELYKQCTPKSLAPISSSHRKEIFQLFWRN
measurement.notes: Functional investigation on the human bradykinin 1 receptor (B1R), Ca2+ FLIPR assay in CHO K1 hB1R cells
Format: cell-based
conditions: B1R antagonism human; test substance 10 μM; Ca2+ FLIPR, CHO K1 hB1R cells
readout.kind: B1R Ant. h [10 μM] % Inhibition (%)
Please give a number only; it is taken to be in %.

Look over these answered cases.
# compound, unit.string, B1R Ant. h [10 μM] % Inhibition
measured = [
    ("COc1ccc(S(=O)(=O)N(C)CCOCC(=O)NCC2CCC(C(c3ccccc3)N(C)C)CC2)cc1 (stereo not shown) [Example 242]", "%", 39),
    ("CN(C)C(c1cccc(F)c1)C1CCC(CCNC(=O)COCCN(Cc2ccccc2)S(=O)(=O)c2ccccc2)CC1 (stereo not shown) [Example 278]", "%", 16),
    ("CN(CCOCC(=O)NC1CCC(C(c2ccccc2)N2CCCC2)CC1)S(=O)(=O)c1c(Cl)cc(Cl)cc1Cl (stereo not shown) [Example 625]", "%", 100),
    ("CN(C)C(CCc1ccccc1)C1CCC(CNC(=O)COCCN(C)S(=O)(=O)c2c(Cl)cccc2Cl)CC1 (stereo not shown) [Example 476]", "%", 103),
    ("CN(C)C(c1ccc(Cl)cc1)C1CCC(CCNC(=O)COCCN(C)S(=O)(=O)c2cccc(C(F)(F)F)c2)CC1 (stereo not shown) [Example 289]", "%", 51),
    ("COc1cc(C)c(S(=O)(=O)N(CCOCC(=O)NC2CCC(C(c3cccc(F)c3)N(C)C)CC2)Cc2ccccc2)c(C)c1 (stereo not shown) [Example 372]", "%", 65),
    ("COc1ccc(S(=O)(=O)N(C)CCOCC(=O)NCCC2CCC(C(c3ccc(F)cc3)N(C)C)CC2)cc1 (stereo not shown) [Example 519]", "%", 38),
    ("Cc1cc(C)c(S(=O)(=O)N2CCC(OCC(=O)NC3CCC(C(c4ccc(F)cc4)N(C)C)CC3)C2)c(C)c1 (stereo not shown) [Example 332]", "%", 57),
    ("COc1cc(C)c(S(=O)(=O)N2CCC(CCOCC(=O)NCCC3CCC(C(c4cccc(F)c4)N(C)C)CC3)CC2)c(C)c1C (stereo not shown) [Example 397]", "%", 2),
    ("CN(C)C(c1ccc(Cl)cc1)C1CCC(CCNC(=O)COC2CCCCC2N(C)S(=O)(=O)c2ccc(Cl)c(Cl)c2)CC1 (stereo not shown) [Example 410]", "%", 1),
]

What the record says about CN(C)C(c1cccc(F)c1)C1CCC(CNC(=O)COC2CCN(S(=O)(=O)c3ccccc3)C2)CC1 (stereo not shown) [Example 355] : B1R Ant. h [10 μM] % Inhibition is −7

What the record says about CN(C)C(c1ccc(F)cc1)C1CCC(CCNC(=O)COC2CCCN(S(=O)(=O)c3ccccc3)C2)CC1 (stereo not shown) [Example 520] : B1R Ant. h [10 μM] % Inhibition is −4

What the record says about COc1ccc(S(=O)(=O)N(C)CCOCC(=O)NCCC2CCC(C(c3ccc(Cl)cc3)N(C)C)CC2)cc1OC (stereo not shown) [Example 339] : B1R Ant. h [10 μM] % Inhibition is −9
